STUDY_TARGET: DYRK2 (UniProt Q92630)
Sequence (Q92630 whole entry): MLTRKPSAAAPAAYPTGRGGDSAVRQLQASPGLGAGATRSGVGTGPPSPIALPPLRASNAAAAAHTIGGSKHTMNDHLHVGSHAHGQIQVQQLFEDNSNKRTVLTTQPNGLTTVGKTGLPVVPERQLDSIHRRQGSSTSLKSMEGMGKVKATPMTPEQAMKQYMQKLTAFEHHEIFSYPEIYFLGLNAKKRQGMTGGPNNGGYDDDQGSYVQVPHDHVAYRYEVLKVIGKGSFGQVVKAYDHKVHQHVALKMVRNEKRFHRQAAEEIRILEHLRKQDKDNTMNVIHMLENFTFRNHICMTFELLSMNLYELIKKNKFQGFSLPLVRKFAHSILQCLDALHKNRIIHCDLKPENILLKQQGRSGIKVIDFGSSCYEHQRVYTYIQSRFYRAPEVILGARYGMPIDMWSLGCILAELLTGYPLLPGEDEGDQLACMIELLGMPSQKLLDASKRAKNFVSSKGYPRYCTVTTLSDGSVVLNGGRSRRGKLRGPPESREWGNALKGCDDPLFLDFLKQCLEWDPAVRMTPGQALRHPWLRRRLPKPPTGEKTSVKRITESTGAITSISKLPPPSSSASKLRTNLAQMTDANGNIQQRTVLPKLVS
PROTOCOL_NOTES: pIC50, kinobeads binding competition
STATED_CONDITIONS: cell material: Lysate mix
QUANTITY_KIND: pIC50

COMPOUND: Cc1cc(Nc2cc(C(=O)NCCNC(=O)OC3CC/C=C/CCC3)nc(N3CCN(Cc4ccc(S(=O)(=O)F)cc4)CC3)n2)n[nH]1 (stereo not given)
VALUE_MEASURED: < 4.52

Q) Sample CCNC(=O)c1cc(Nc2cc(C3CC3)[nH]n2)nc(N2CCN(Cc3ccc(S(=O)(=O)F)cc3)CC2)n1 — what was its pIC50?
A) 4.65

Q) Entry C#CCNC(=O)c1cc(Nc2cc(C)[nH]n2)nc(N2CCN(Cc3ccc(S(=O)(=O)F)cc3)CC2)n1 please
A) < 4.52

Q) Can you handle O=C(NCCNC(=O)c1cc(Nc2cc(C3CC3)[nH]n2)nc(N2CCN(Cc3ccc(S(=O)(=O)F)cc3)CC2)n1)OC1CC/C=C/CCC1 (stereo not given) next?
A) < 4.52

Q) Same lookup for CCNC(=O)c1cc(Nc2cc(C)[nH]n2)nc(N2CCN(Cc3ccc(S(=O)(=O)F)cc3)CC2)n1 , please.
A) < 4.52

---

STUDY_TARGET: CDK2 (UniProt P24941)
PROTOCOL_NOTES: pIC50, kinobeads binding competition
STATED_CONDITIONS: cell material: Lysate mix
QUANTITY_KIND: pIC50

COMPOUND: C#CCNC(=O)c1cc(Nc2cc(C)[nH]n2)nc(N2CCN(Cc3ccc(S(=O)(=O)F)cc3)CC2)n1
pIC50: 6.2
//
COMPOUND: CCNC(=O)c1cc(Nc2cc(C)[nH]n2)nc(N2CCN(Cc3ccc(S(=O)(=O)F)cc3)CC2)n1
pIC50: 6.47
//
COMPOUND: Cc1cc(Nc2cc(C(=O)NCCNC(=O)OC3CC/C=C/CCC3)nc(N3CCN(Cc4ccc(S(=O)(=O)F)cc4)CC3)n2)n[nH]1 (stereo unspecified)
pIC50: 4.74
//
COMPOUND: O=C(NCCNC(=O)c1cc(Nc2cc(C3CC3)[nH]n2)nc(N2CCN(Cc3ccc(S(=O)(=O)F)cc3)CC2)n1)OC1CC/C=C/CCC1 (stereo unspecified)
pIC50: 5.19
//
COMPOUND: C#CCNC(=O)c1cc(Nc2cc(C3CC3)[nH]n2)nc(N2CCN(Cc3ccc(S(=O)(=O)F)cc3)CC2)n1
pIC50: 6.7
//
COMPOUND: CCNC(=O)c1cc(Nc2cc(C3CC3)[nH]n2)nc(N2CCN(Cc3ccc(S(=O)(=O)F)cc3)CC2)n1
pIC50: 6.29

---

STUDY_TARGET: HIPK3 (UniProt Q9H422)
Sequence (Q9H422 whole entry, looked up): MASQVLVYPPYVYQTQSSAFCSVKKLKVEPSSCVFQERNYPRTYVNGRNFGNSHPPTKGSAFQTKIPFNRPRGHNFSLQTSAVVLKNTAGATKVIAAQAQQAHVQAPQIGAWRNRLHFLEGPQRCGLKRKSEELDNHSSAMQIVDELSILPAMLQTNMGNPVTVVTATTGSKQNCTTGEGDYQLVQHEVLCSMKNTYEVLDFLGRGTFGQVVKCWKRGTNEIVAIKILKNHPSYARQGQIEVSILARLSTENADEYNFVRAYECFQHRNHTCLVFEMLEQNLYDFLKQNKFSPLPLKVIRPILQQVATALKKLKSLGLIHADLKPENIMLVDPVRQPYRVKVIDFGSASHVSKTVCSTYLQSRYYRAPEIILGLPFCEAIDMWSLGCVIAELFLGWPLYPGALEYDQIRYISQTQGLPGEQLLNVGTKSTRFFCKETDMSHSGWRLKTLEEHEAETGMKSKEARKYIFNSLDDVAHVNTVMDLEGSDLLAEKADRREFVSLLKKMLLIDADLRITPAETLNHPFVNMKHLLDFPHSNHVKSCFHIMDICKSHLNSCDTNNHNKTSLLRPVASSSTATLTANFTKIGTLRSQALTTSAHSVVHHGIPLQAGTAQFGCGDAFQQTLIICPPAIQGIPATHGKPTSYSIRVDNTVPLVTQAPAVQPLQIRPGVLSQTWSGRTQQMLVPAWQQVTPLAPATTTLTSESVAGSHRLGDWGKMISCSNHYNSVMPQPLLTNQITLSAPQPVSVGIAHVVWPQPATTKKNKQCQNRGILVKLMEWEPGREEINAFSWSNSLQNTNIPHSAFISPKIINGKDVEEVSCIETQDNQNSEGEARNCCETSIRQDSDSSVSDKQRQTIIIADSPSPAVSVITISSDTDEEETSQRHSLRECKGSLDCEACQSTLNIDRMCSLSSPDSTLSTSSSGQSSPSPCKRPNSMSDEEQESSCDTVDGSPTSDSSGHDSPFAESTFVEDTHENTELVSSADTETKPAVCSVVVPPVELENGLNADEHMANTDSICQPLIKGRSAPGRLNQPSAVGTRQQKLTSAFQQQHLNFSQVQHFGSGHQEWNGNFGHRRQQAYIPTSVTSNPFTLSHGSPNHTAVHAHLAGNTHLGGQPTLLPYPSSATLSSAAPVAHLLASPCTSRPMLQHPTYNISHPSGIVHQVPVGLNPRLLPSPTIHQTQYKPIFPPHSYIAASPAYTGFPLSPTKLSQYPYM
PROTOCOL_NOTES: pIC50, kinobeads binding competition
STATED_CONDITIONS: cell material: Lysate mix
QUANTITY_KIND: pIC50

SMILES_REPR: CCNC(=O)c1cc(Nc2cc(C3CC3)[nH]n2)nc(N2CCN(Cc3ccc(S(=O)(=O)F)cc3)CC2)n1
STUDY_TARGET: HIPK3 (UniProt Q9H422)
pIC50: 5.74
//
SMILES_REPR: C#CCNC(=O)c1cc(Nc2cc(C)[nH]n2)nc(N2CCN(Cc3ccc(S(=O)(=O)F)cc3)CC2)n1
STUDY_TARGET: HIPK3 (UniProt Q9H422)
pIC50: 4.76
//
SMILES_REPR: CCNC(=O)c1cc(Nc2cc(C)[nH]n2)nc(N2CCN(Cc3ccc(S(=O)(=O)F)cc3)CC2)n1
STUDY_TARGET: HIPK3 (UniProt Q9H422)
pIC50: 4.62
//
SMILES_REPR: C#CCNC(=O)c1cc(Nc2cc(C3CC3)[nH]n2)nc(N2CCN(Cc3ccc(S(=O)(=O)F)cc3)CC2)n1
STUDY_TARGET: HIPK3 (UniProt Q9H422)
pIC50: 5.76

---

STUDY_TARGET: UniProt O96017
Sequence (O96017 whole entry): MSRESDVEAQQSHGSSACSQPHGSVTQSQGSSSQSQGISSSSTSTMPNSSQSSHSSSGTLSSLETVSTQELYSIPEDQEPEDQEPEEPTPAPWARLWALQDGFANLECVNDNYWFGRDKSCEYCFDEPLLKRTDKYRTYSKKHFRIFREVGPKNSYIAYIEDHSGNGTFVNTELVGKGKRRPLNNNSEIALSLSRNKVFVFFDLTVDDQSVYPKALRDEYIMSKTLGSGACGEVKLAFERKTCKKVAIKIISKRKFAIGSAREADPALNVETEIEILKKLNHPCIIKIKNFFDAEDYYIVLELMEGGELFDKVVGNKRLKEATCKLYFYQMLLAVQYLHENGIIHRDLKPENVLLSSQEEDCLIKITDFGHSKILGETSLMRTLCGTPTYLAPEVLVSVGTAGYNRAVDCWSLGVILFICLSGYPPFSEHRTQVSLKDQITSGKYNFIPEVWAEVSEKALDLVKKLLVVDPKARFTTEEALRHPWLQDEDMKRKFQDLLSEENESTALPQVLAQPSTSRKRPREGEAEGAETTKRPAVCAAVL
PROTOCOL_NOTES: pIC50, kinobeads binding competition
STATED_CONDITIONS: cell material: Lysate mix
QUANTITY_KIND: pIC50

MOLECULE: C#CCNC(=O)c1cc(Nc2cc(C)[nH]n2)nc(N2CCN(Cc3ccc(S(=O)(=O)F)cc3)CC2)n1
VALUE_MEASURED: 4.98

MOLECULE: C#CCNC(=O)c1cc(Nc2cc(C3CC3)[nH]n2)nc(N2CCN(Cc3ccc(S(=O)(=O)F)cc3)CC2)n1
VALUE_MEASURED: 4.92

MOLECULE: CCNC(=O)c1cc(Nc2cc(C3CC3)[nH]n2)nc(N2CCN(Cc3ccc(S(=O)(=O)F)cc3)CC2)n1
VALUE_MEASURED: 4.75

MOLECULE: Cc1cc(Nc2cc(C(=O)NCCNC(=O)OC3CC/C=C/CCC3)nc(N3CCN(Cc4ccc(S(=O)(=O)F)cc4)CC3)n2)n[nH]1 (stereo unspecified)
VALUE_MEASURED: 5.23

MOLECULE: O=C(NCCNC(=O)c1cc(Nc2cc(C3CC3)[nH]n2)nc(N2CCN(Cc3ccc(S(=O)(=O)F)cc3)CC2)n1)OC1CC/C=C/CCC1 (stereo unspecified)
VALUE_MEASURED: 4.71

MOLECULE: CCNC(=O)c1cc(Nc2cc(C)[nH]n2)nc(N2CCN(Cc3ccc(S(=O)(=O)F)cc3)CC2)n1
VALUE_MEASURED: 4.92

---

STUDY_TARGET: UniProt P45985
Sequence (P45985 whole entry): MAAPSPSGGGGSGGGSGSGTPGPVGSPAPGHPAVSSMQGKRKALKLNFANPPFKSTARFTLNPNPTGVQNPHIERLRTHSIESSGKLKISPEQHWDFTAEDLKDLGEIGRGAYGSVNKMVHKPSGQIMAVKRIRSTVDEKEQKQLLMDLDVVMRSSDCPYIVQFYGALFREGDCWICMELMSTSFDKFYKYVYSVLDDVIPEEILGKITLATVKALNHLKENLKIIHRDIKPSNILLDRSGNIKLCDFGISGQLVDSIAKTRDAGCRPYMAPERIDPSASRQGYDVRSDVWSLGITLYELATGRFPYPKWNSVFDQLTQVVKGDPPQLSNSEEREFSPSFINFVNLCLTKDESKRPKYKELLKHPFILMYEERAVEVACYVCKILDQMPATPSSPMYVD
PROTOCOL_NOTES: pIC50, kinobeads binding competition
STATED_CONDITIONS: cell material: Lysate mix
Measured pIC50, listed per entry for reference.

Example cases with answers are listed next.
MOLECULE: CCNC(=O)c1cc(Nc2cc(C)[nH]n2)nc(N2CCN(Cc3ccc(S(=O)(=O)F)cc3)CC2)n1
QUANTITY_KIND: pIC50
VALUE_MEASURED: < 4.52

MOLECULE: C#CCNC(=O)c1cc(Nc2cc(C3CC3)[nH]n2)nc(N2CCN(Cc3ccc(S(=O)(=O)F)cc3)CC2)n1
QUANTITY_KIND: pIC50
VALUE_MEASURED: 4.82

MOLECULE: Cc1cc(Nc2cc(C(=O)NCCNC(=O)OC3CC/C=C/CCC3)nc(N3CCN(Cc4ccc(S(=O)(=O)F)cc4)CC3)n2)n[nH]1 (stereo unspecified)
QUANTITY_KIND: pIC50
VALUE_MEASURED: < 4.52

MOLECULE: O=C(NCCNC(=O)c1cc(Nc2cc(C3CC3)[nH]n2)nc(N2CCN(Cc3ccc(S(=O)(=O)F)cc3)CC2)n1)OC1CC/C=C/CCC1 (stereo unspecified)
QUANTITY_KIND: pIC50
VALUE_MEASURED: < 4.52

MOLECULE: CCNC(=O)c1cc(Nc2cc(C3CC3)[nH]n2)nc(N2CCN(Cc3ccc(S(=O)(=O)F)cc3)CC2)n1
QUANTITY_KIND: pIC50
VALUE_MEASURED: 4.88

Below: the item to evaluate.
Q) What pIC50 value was documented for this molecule, C#CCNC(=O)c1cc(Nc2cc(C)[nH]n2)nc(N2CCN(Cc3ccc(S(=O)(=O)F)cc3)CC2)n1 ?
A) < 4.52

---

STUDY_TARGET: ADCK1 (UniProt Q86TW2)
Sequence (Q86TW2 whole entry): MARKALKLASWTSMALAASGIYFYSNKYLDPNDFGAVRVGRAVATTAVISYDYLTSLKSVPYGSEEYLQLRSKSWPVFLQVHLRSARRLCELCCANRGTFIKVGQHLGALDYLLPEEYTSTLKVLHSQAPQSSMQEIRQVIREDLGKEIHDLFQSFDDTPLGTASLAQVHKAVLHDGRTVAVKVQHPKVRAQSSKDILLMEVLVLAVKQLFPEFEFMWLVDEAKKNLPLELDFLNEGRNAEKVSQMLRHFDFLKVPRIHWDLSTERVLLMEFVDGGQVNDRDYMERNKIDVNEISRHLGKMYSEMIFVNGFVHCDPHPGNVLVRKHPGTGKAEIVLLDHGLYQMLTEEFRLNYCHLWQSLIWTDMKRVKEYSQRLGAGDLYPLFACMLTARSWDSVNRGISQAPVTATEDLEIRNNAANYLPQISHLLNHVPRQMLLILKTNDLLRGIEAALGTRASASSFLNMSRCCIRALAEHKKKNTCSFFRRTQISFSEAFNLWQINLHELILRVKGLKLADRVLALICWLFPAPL
PROTOCOL_NOTES: pIC50, kinobeads binding competition
STATED_CONDITIONS: cell material: Lysate mix
Examples of compounds with documented pIC50 follow.

Examples with answers:
COMPOUND: C#CCNC(=O)c1cc(Nc2cc(C3CC3)[nH]n2)nc(N2CCN(Cc3ccc(S(=O)(=O)F)cc3)CC2)n1
pIC50: < 4.52
//
COMPOUND: CCNC(=O)c1cc(Nc2cc(C)[nH]n2)nc(N2CCN(Cc3ccc(S(=O)(=O)F)cc3)CC2)n1
pIC50: < 4.52
//
COMPOUND: O=C(NCCNC(=O)c1cc(Nc2cc(C3CC3)[nH]n2)nc(N2CCN(Cc3ccc(S(=O)(=O)F)cc3)CC2)n1)OC1CC/C=C/CCC1 (stereo not given)
pIC50: < 4.52
//
COMPOUND: C#CCNC(=O)c1cc(Nc2cc(C)[nH]n2)nc(N2CCN(Cc3ccc(S(=O)(=O)F)cc3)CC2)n1
pIC50: < 4.52

Kindly review the next compound as well.
Q) # input compound: Cc1cc(Nc2cc(C(=O)NCCNC(=O)OC3CC/C=C/CCC3)nc(N3CCN(Cc4ccc(S(=O)(=O)F)cc4)CC3)n2)n[nH]1 (stereo not given) ; wanted: its pIC50
A) < 4.52

---

STUDY_TARGET: UniProt P27361
Sequence (P27361 whole entry): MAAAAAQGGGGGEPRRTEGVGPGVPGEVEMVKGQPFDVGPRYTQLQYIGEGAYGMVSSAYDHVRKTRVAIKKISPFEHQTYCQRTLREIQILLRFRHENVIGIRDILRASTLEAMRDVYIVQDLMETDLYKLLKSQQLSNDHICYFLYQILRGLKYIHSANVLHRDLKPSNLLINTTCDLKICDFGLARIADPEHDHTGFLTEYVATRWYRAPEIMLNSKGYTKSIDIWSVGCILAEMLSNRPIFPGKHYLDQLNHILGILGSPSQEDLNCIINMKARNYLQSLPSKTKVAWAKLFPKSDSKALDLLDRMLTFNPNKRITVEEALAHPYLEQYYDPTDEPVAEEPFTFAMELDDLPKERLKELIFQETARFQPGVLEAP
PROTOCOL_NOTES: pIC50, kinobeads binding competition
STATED_CONDITIONS: cell material: Lysate mix
QUANTITY_KIND: pIC50

COMPOUND: O=C(NCCNC(=O)c1cc(Nc2cc(C3CC3)[nH]n2)nc(N2CCN(Cc3ccc(S(=O)(=O)F)cc3)CC2)n1)OC1CC/C=C/CCC1 (stereo not given)
pIC50: < 4.52
//
COMPOUND: CCNC(=O)c1cc(Nc2cc(C3CC3)[nH]n2)nc(N2CCN(Cc3ccc(S(=O)(=O)F)cc3)CC2)n1
pIC50: 4.94
//
COMPOUND: C#CCNC(=O)c1cc(Nc2cc(C)[nH]n2)nc(N2CCN(Cc3ccc(S(=O)(=O)F)cc3)CC2)n1
pIC50: < 4.52
//
COMPOUND: Cc1cc(Nc2cc(C(=O)NCCNC(=O)OC3CC/C=C/CCC3)nc(N3CCN(Cc4ccc(S(=O)(=O)F)cc4)CC3)n2)n[nH]1 (stereo not given)
pIC50: < 4.52

Read the next record carefully.
Q) Requested read-out: pIC50. Entry: CCNC(=O)c1cc(Nc2cc(C)[nH]n2)nc(N2CCN(Cc3ccc(S(=O)(=O)F)cc3)CC2)n1
A) < 4.52
